Tested on: lettuce aphids (Nasonovia ribisnigri)
Test: Field trials against lettuce aphids
Format: in vivo
Details: seven lettuce field trials, foliar spray; rate g ha^−1: flupyradifurone 125, pymetrozine 200, thiacloprid 96, spirotetramat 75; 13–15 days after application
Listed below: Efficacy (%) 13–15 DAA values for each entry.
Only the number, expressed in %, is required.

{"smiles.entry": "CC1=NNC(=O)N(/N=C/c2cccnc2)C1", "target.or.test.system": "lettuce aphids (Nasonovia ribisnigri)", "readout.number": 57}
{"smiles.entry": "N#C/N=C1\\SCCN1Cc1ccc(Cl)nc1", "target.or.test.system": "lettuce aphids (Nasonovia ribisnigri)", "readout.number": 72}
{"smiles.entry": "O=C1C=C(N(Cc2ccc(Cl)nc2)CC(F)F)CO1", "target.or.test.system": "lettuce aphids (Nasonovia ribisnigri)", "readout.number": 83}

Now for a further compound.
Task: Supply reported Efficacy (%) 13–15 DAA belonging to this compound: CCOC(=O)OC1=C(c2cc(C)ccc2C)C(=O)N[C@]12CC[C@@H](OC)CC2
Output: 98

====

System: lettuce aphids (Nasonovia ribisnigri)
Assay: Field trials against lettuce aphids
Assay type: in vivo
Conditions: seven lettuce field trials, foliar spray; rate g ha^−1: flupyradifurone 125, pymetrozine 200, thiacloprid 96, spirotetramat 75; 6–10 days after application
measurement.kind: Efficacy (%) 6–10 DAA
Express it in %; write the number only.

Recorded results for 3 molecules are shown here.
{"molecule": "O=C1C=C(N(Cc2ccc(Cl)nc2)CC(F)F)CO1 [Flupyradifurone]", "unit.of.measurement": "%", "readout.number": 96}
{"molecule": "CCOC(=O)OC1=C(c2cc(C)ccc2C)C(=O)N[C@]12CC[C@@H](OC)CC2 [Spirotetramat, spirotetramat]", "unit.of.measurement": "%", "readout.number": 90}
{"molecule": "CC1=NNC(=O)N(/N=C/c2cccnc2)C1 [Pymetrozine, pymetrozine]", "unit.of.measurement": "%", "readout.number": 79}

Moving on to another molecule below.
Task: Please report the measured Efficacy (%) 6–10 DAA for N#C/N=C1\SCCN1Cc1ccc(Cl)nc1 [Thiacloprid, thiacloprid] tested on lettuce aphids (Nasonovia ribisnigri).
Output: 88

====

Test system: B. tabaci CYP6CM1
Experiment: Metabolism of insecticides by recombinant CYP6CM1 microsomes
Assay type: in vitro ADME, Bemisia tabaci
Details: 20 µM insecticide; 4 h at 30 °C; NADPH-regenerating system; UPLC-MS
measurement.kind: degradation of parent compound by CYP6CM1 microsomes

{"molecule": "CC1=NNC(=O)N(/N=C/c2cccnc2)C1", "result": "70 ± 6%"}
{"molecule": "CC(c1ccc(C(F)(F)F)nc1)S(C)(=O)=NC#N (centres unmarked)", "result": "not depleted at all"}
{"molecule": "O=C1C=C(N(Cc2ccc(Cl)nc2)CC(F)F)CO1", "result": "not depleted at all"}
{"molecule": "O=[N+]([O-])NC1=NCCN1Cc1ccc(Cl)nc1 [Imidacloprid, imidacloprid, reference compound]", "result": "23 ± 1%"}

--- query ---
Task: Return the recorded degradation of parent compound by CYP6CM1 microsomes value; entry: CCOC(=O)OC1=C(c2cc(C)ccc2C)C(=O)N[C@]12CC[C@@H](OC)CC2
Output: not depleted at all

====

Experiment: Aquatic invertebrate acute toxicity
Details: Daphnia, in vivo
measurement.kind: EC50

Task: Check the records and state EC50 for O=C1C=C(N(Cc2ccc(Cl)nc2)CC(F)F)CO1
Output: > 77.6 µg/mL

====

Experiment: Aquatic plant toxicity
Conditions: algae, in vivo
measurement.kind: EC50

Task: Let me know recorded EC50 for O=C1C=C(N(Cc2ccc(Cl)nc2)CC(F)F)CO1 , thanks.
Output: > 80 µg/mL
